Test: In vitro stability in acidic and neutral conditions (SGF, SGF + pepsin, SGF + denatured pepsin, PBS)
Conditions: buffer, pH 7.3
Measured half-life at 100 µM, listed per entry.
quantity: half-life at 100 µM

# compound, experimental_value
rows = [
    ("CC(=O)CC[C@H]1C(=O)N[C@@H](C(C)C)C(=O)N[C@@H](Cc2cccc(O)c2)C(=O)N2CCCC(N2)C(=O)O[C@H](/C(C)=C/C=C/C(=O)N2CCCCO2)C/C=C/C=C/[C@H](O)[C@H](C)[C@H]1O (some centres unmarked) [Compound 45]", "> 1440 min"),
    ("CON(C)C(=O)/C=C/C=C(\\C)[C@@H]1C/C=C/C=C/[C@H](O)[C@H](C)[C@@H](O)[C@@H](CCC(C)=O)C(=O)N[C@@H](C(C)C)C(=O)N[C@@H](Cc2cccc(O)c2)C(=O)N2CCCC(N2)C(=O)O1 (some centres unmarked) [Compound 33]", "> 1440 min"),
]

---

Measured AUC(0-t), listed per entry.
Experiment: in vivo
Details: male, mouse, in vivo, iv; CD1 mice, whole blood, 1 mg/kg i.v.; read-out: AUClast after 1 mg/kg i.v. dose

# compound, uom, AUC(0-t)
data = [
    ("CC(=O)CC[C@H]1C(=O)N[C@@H](C(C)C)C(=O)N[C@@H](Cc2cccc(O)c2)C(=O)N2CCCC(N2)C(=O)O[C@H](/C(C)=C/C=C/C(=O)Nc2ccccn2)C/C=C/C=C/[C@H](O)[C@H](C)[C@H]1O (some centres unmarked)", "ng·h/mL", 11700),
    ("CC(=O)CC[C@H]1C(=O)N[C@@H](C(C)C)C(=O)N[C@@H](Cc2cccc(O)c2)C(=O)N2CCCC(N2)C(=O)O[C@H](/C(C)=C/C=C/C(=O)N2CCCCO2)C/C=C/C=C/[C@H](O)[C@H](C)[C@H]1O (some centres unmarked)", "ng·h/mL", 15100),
]

---

Test: in vivo
Conditions: male, mouse, iv; CD1 mice, whole blood, 1 mg/kg i.v.; read-out: AUClast after 1 mg/kg i.v. dose
Measured AUC(0-t), listed per entry.

# molecule, AUC(0-t) / ng·h/mL
measured = [
    ("CCN(CC)C(=O)/C=C/C=C(\\C)[C@@H]1C/C=C/C=C/[C@H](O)[C@H](C)[C@@H](O)[C@@H](CCC(C)=O)C(=O)N[C@@H](C(C)C)C(=O)N[C@@H](Cc2cccc(O)c2)C(=O)N2CCCC(N2)C(=O)O1 (stereo partly shown)", 14000),
    ("CON(C)C(=O)/C=C/C=C(\\C)[C@@H]1C/C=C/C=C/C=C(\\C)[C@@H](O)[C@@H](CCC(C)=O)C(=O)N[C@@H](C(C)C)C(=O)N[C@@H](Cc2cc(O)cc(F)c2)C(=O)N2CCCC(N2)C(=O)O1 (stereo partly shown)", 5500),
    ("CC(=O)CC[C@H]1C(=O)N[C@@H](C(C)C)C(=O)N[C@@H](Cc2cccc(O)c2)C(=O)N2CCCC(N2)C(=O)O[C@H](/C(C)=C/C=C/C(=O)OC(C)(C)C)C/C=C/C=C/[C@H](O)[C@H](C)[C@H]1O (stereo partly shown)", 4910),
    ("CC(=O)CC[C@H]1C(=O)N[C@@H](C(C)C)C(=O)N[C@@H](Cc2cccc(O)c2)C(=O)N2CCCC(N2)C(=O)O[C@H](/C(C)=C/C=C/C(=O)N(CC(C)C)CC(C)C)C/C=C/C=C/[C@H](O)[C@H](C)[C@H]1O (stereo partly shown)", 1940),
]

---

Assay: in vivo
Conditions: male, mouse, whole blood, po; CD1 mice, p.o. 10 or 5 mg/kg vs i.v. 1 mg/kg; read-out: Oral bioavailability F %
Values of bioavailability greater than or equal to 0.1% map to true; values below map to false.

# compound, assigned_label
data = [
    ("CC(=O)CC[C@H]1C(=O)N[C@@H](C(C)C)C(=O)N[C@@H](Cc2cccc(O)c2)C(=O)N2CCCC(N2)C(=O)O[C@H](/C(C)=C/C=C/C(=O)N2CCOCC2)C/C=C/C=C/[C@H](O)[C@H](C)[C@H]1O (stereo partly drawn) [Compound 43]", "true"),
    ("CC(=O)CC[C@H]1C(=O)N[C@@H](C(C)C)C(=O)N[C@@H](Cc2cc(O)cc(F)c2)C(=O)N2CCCC(N2)C(=O)O[C@H](/C(C)=C/C=C/C(=O)N2CCCCO2)C/C=C/C=C/[C@H](O)[C@H](C)[C@H]1O (stereo partly drawn) [Compound 24]", "true"),
    ("CC(=O)CC[C@H]1C(=O)N[C@@H](C(C)C)C(=O)N[C@@H](Cc2cccc(O)c2)C(=O)N2CCCC(N2)C(=O)O[C@H](/C(C)=C/C=C/C(=O)N(CC(C)C)CC(C)C)C/C=C/C=C/[C@H](O)[C@H](C)[C@H]1O (stereo partly drawn) [Compound 41]", "true"),
    ("CCOC(=O)/C=C/C=C(\\C)[C@@H]1C/C=C/C=C/[C@H](O)[C@H](C)[C@@H](O)[C@@H](CCC(C)=O)C(=O)N[C@@H](C(C)C)C(=O)N[C@@H](Cc2cccc(O)c2)C(=O)N2CCCC(N2)C(=O)O1 (stereo partly drawn) [Compound 38]", "true"),
    ("CON(C)C(=O)/C=C/C=C(\\C)[C@@H]1C/C=C/C=C/C=C(\\C)[C@@H](O)[C@@H](CCC(C)=O)C(=O)N[C@@H](C(C)C)C(=O)N[C@@H](Cc2cc(O)cc(F)c2)C(=O)N2CCCC(N2)C(=O)O1 (stereo partly drawn) [Compound 26]", "true"),
    ("CNC(=O)/C=C/C=C(\\C)[C@@H]1C/C=C/C=C/[C@H](O)[C@H](C)[C@@H](O)[C@@H](CCC(C)=O)C(=O)N[C@@H](C(C)C)C(=O)N[C@@H](Cc2cccc(OC)c2)C(=O)N2CCCC(N2)C(=O)O1 (stereo partly drawn) [Compound 37]", "false"),
    ("CC(=O)CC[C@H]1C(=O)N[C@@H](C(C)C)C(=O)N[C@@H](Cc2cccc(O)c2)C(=O)N2CCCC(N2)C(=O)O[C@H](/C(C)=C/C=C/C(=O)Nc2ccc(-c3ccccc3)cc2)C/C=C/C=C/[C@H](O)[C@H](C)[C@H]1O (stereo partly drawn) [Compound 44]", "false"),
]

---

Assay: in vivo
Settings: male, mouse, in vivo, po; CD1 mice, whole blood, 10 mg/kg p.o.; read-out: AUClast after 10 mg/kg p.o. dose
quantity: AUC(0-t) (ng·h/mL)

# compound, uom, experimental_value
measured = [
    ("CC(=O)CC[C@H]1C(=O)N[C@@H](C(C)C)C(=O)N[C@@H](Cc2cccc(O)c2)C(=O)N2CCCC(N2)C(=O)O[C@H](/C(C)=C/C=C/C(=O)N2CCCCO2)C/C=C/C=C/[C@H](O)[C@H](C)[C@H]1O (some centres unmarked)", "ng·h/mL", 4840),
    ("CC(=O)CC[C@H]1C(=O)N[C@@H](C(C)C)C(=O)N[C@@H](Cc2cccc(O)c2)C(=O)N2CCCC(N2)C(=O)O[C@H](/C(C)=C/C=C/C(=O)Nc2ccccn2)C/C=C/C=C/[C@H](O)[C@H](C)[C@H]1O (some centres unmarked)", "ng·h/mL", 919),
]

---

Assay: in vivo
Conditions: male, mouse, iv; CD1 mice, whole blood, 1 mg/kg i.v.; read-out: AUClast after 1 mg/kg i.v. dose
Method: For sanglifehrins, whole blood is analysed. Compounds are formulated in 5% ethanol/5% cremophor EL/90% saline for both p.o. and i.v. administration. […] The concentration of the sanglifehrin or parent compound in the sample is determined via LCMS as follows: 20 μL of blood:H2O (1:1, v/v)/PK sample is added with 20 μL Internal standard (hydroxyl macrocycle, 6) at 100 ng/mL, 20 μL working solution/MeOH and 150 μL of ACN, vortexed for 1 minute at 1500 rpm, and centrifuged at 12000 rpm for 5 min. […]
Measured AUC(0-t), listed per entry.
quantity: AUC(0-t)

# compound, quantity, experimental_value
measured = [
    ("CC(=O)CC[C@H]1C(=O)N[C@@H](C(C)C)C(=O)N[C@@H](Cc2cccc(O)c2)C(=O)N2CCCC(N2)C(=O)O[C@H](/C(C)=C/C=C/C(=O)Nc2ccc(-c3ccccc3)cc2)C/C=C/C=C/[C@H](O)[C@H](C)[C@H]1O (stereo partly shown)", "AUC(0-t)", "2500 ng·h/mL"),
    ("CON(C)C(=O)/C=C/C=C(\\C)[C@@H]1C/C=C/C=C/[C@H](O)[C@H](C)[C@@H](O)[C@@H](CCC(C)=O)C(=O)N[C@@H](C(C)C)C(=O)N[C@@H](Cc2cc(O)cc(F)c2)C(=O)N2CCCC(N2)C(=O)O1 (stereo partly shown)", "AUC(0-t)", "22900 ng·h/mL"),
    ("CCOC(=O)/C=C/C=C(\\C)[C@@H]1C/C=C/C=C/[C@H](O)[C@H](C)[C@@H](O)[C@@H](CCC(C)=O)C(=O)N[C@@H](C(C)C)C(=O)N[C@@H](Cc2cccc(O)c2)C(=O)N2CCCC(N2)C(=O)O1 (stereo partly shown)", "AUC(0-t)", "5790 ng·h/mL"),
    ("CC(=O)CC[C@H]1C(=O)N[C@@H](C(C)C)C(=O)N[C@@H](Cc2cccc(O)c2)C(=O)N2CCCC(N2)C(=O)O[C@H](/C(C)=C/C=C/C(=O)N2CCOCC2)C/C=C/C=C/[C@H](O)[C@H](C)[C@H]1O (stereo partly shown)", "AUC(0-t)", "9800 ng·h/mL"),
]
